# tgt: L-lactate dehydrogenase A chain (Homo sapiens, UniProt P00338)
# experiment_summary: Inhibition of LDHA in human A673 cells assessed as decrease in lactate production incubated for 2 hrs by lactate oxidase-coupled fluorescence based assay
# Format: cell-based
pIC50: −log10 of the molar value.
observable: pIC50

Consider the following illustrative entries.
NS(=O)(=O)c1ccc(Cc2c(-c3ccc(F)c(/C=C/C4CC4)c3)nn(-c3nc(C(=O)O)cs3)c2CC2CC2)cc1F: 6.49
COCC#Cc1cc(-c2nn(-c3nc(C(=O)O)cs3)c(CC3CC3)c2Cc2ccc(S(N)(=O)=O)c(F)c2)ccc1F: 6.11
CCCC#Cc1cc(-c2nn(-c3nc(C(=O)O)cs3)c(CC3CC3)c2Cc2ccc(S(N)(=O)=O)c(F)c2)ccc1F: 6.38
CC(C)(C)/C=C/c1cc(-c2nn(-c3nc(C(=O)O)cs3)c(CC3CC3)c2Cc2ccc(S(N)(=O)=O)c(F)c2)ccc1F: 6.44
NS(=O)(=O)c1ccc(Cc2c(-c3cccc(C#Cc4ccc(C5CC5)s4)c3)nn(-c3nc(C(=O)O)cs3)c2CCC2CC2)cc1F: 6.36

(P) NS(=O)(=O)c1ccc(Cc2c(-c3cccc(C#Cc4ccc(C5CC5)s4)c3)nn(-c3nc(C(=O)O)cs3)c2CC2CC2)cc1F
(Q) NS(=O)(=O)c1ccc(Cc2c(-c3cccc(-c4ccccc4)c3)nn(-c3nc(C(=O)O)cs3)c2CC(F)(F)F)cc1
(R) Cc1cc(C#Cc2cccc(-c3nn(-c4nc(C(=O)O)cs4)c(CC4CC4)c3Cc3ccc(S(N)(=O)=O)c(F)c3)c2)c(C)s1
(S) NS(=O)(=O)c1ccc(Cc2c(-c3ccc(F)c(-c4ccccc4)c3)nn(-c3nc(C(=O)O)cs3)c2CC2CC2)cc1
(T) Cn1cc(C#Cc2cc(-c3nn(-c4nc(C(=O)O)cs4)c(CC4CC4)c3Cc3ccc(S(N)(=O)=O)c(F)c3)ccc2F)cn1
Data request: Order the records by pIC50, with each subsequent value no larger than the one before. List labels; respect the requested ordering.
Data returned: R, P, S, T, Q

(A) NS(=O)(=O)c1ccc(Cc2c(-c3ccc(F)c(-c4ccccc4)c3)nn(-c3nc(C(=O)O)cs3)c2CC2CC2)cc1F
(B) CC(C)c1ccc(C#Cc2cccc(-c3nn(-c4nc(C(=O)O)cs4)c(CC4CC4)c3Cc3ccc(S(N)(=O)=O)c(F)c3)c2)s1
Data request: # min-compare on pIC50 between A and B I would appreciate it if you answered with the label of your choice.
Data returned: A

----------
# tgt: UniProtKB P00338
# experiment_summary: Inhibition of LDHA in human A673 cells assessed as decrease in lactate production incubated for 2 hrs by lactate oxidase-coupled fluorescence based assay
# Assay type: cell-based
observable: IC50 (nM)

Cc1ccc(/C=C/c2cccc(-c3nn(-c4nc(C(=O)O)cs4)c(CC4CC4)c3Cc3ccc(S(N)(=O)=O)c(F)c3)c2)s1: 357

(a) Cc1ccc(C#Cc2cccc(-c3nn(-c4nc(C(=O)O)cs4)c(CC4CC4)c3Cc3ccc(S(N)(=O)=O)c(F)c3)c2)o1
(b) CC(F)C#Cc1cc(-c2nn(-c3nc(C(=O)O)cs3)c(CC3CC3)c2Cc2ccc(S(N)(=O)=O)c(F)c2)ccc1F (stereo not given)
Data request: # min-compare on IC50 between a and b I would appreciate it if you answered with the label of your choice.
Data returned: a

(1) Cc1ccsc1C#Cc1cccc(-c2nn(-c3nc(C(=O)O)cs3)c(CC3CC3)c2Cc2ccc(S(N)(=O)=O)c(F)c2)c1
(2) NS(=O)(=O)c1ccc(Cc2c(-c3ccc(F)c(C#CCN4CCCC4)c3)nn(-c3nc(C(=O)O)cs3)c2CC2CC2)cc1F
Data request: # min-compare on IC50 between 1 and 2 I would appreciate it if you answered with the label of your choice.
Data returned: 1
(1: 390 nM, 2: 1090 nM)

(a) Cc1cnc(C#Cc2cccc(-c3nn(-c4nc(C(=O)O)cs4)c(CC4CC4)c3Cc3ccc(S(N)(=O)=O)c(F)c3)c2)s1
(b) Cc1ccc(C#Cc2cccc(-c3nn(-c4nc(C(=O)O)cs4)c(CCC4CC4)c3Cc3ccc(S(N)(=O)=O)c(F)c3)c2)s1
(c) NS(=O)(=O)c1ccc(Cc2c(-c3cccc(C#Cc4ccc(C5CCC5)s4)c3)nn(-c3nc(C(=O)O)cs3)c2CC2CC2)cc1F
(d) NS(=O)(=O)c1ccc(Cc2c(-c3ccc(F)c(C#CCC4CCCO4)c3)nn(-c3nc(C(=O)O)cs3)c2CC2CC2)cc1F (stereo not given)
Data request: Order the records by IC50, with each subsequent value no larger than the one before. List labels; respect the requested ordering.
Data returned: d, a, c, b
(d: 933 nM, a: 527 nM, c: 333 nM, b: 174 nM)

(I) Cc1cc(C#Cc2cccc(-c3nn(-c4nc(C(=O)O)cs4)c(CCC4CC4)c3Cc3ccc(S(N)(=O)=O)c(F)c3)c2)c(C)s1
(II) Cc1cc(C)c(C#Cc2cccc(-c3nn(-c4nc(C(=O)O)cs4)c(CC4CC4)c3Cc3ccc(S(N)(=O)=O)c(F)c3)c2)s1
Data request: Form field 'greater IC50' accepts I or II ; which applies? I would appreciate it if you answered with the label of your choice.
Data returned: II
(II: 345 nM, I: 162 nM)

Values compiled from ChEMBL document CHEMBL4665801.
